assayed-system: anti-A016 antibody (Thyroglobulin PET)
assay-protocol: peptide competition assay in 6% BSA
Where no end group is shown, it is not given here.
observation-type: pIC50
Numbers only, as −log10 of the molar value.

Challenge: For the binder CDEAGQELEGMR-NH2 [A016 peptide (Thyroglobulin), …-NH2] , what pIC50 is on record?
Response given: 8.40
